Literature roundup of Plasminogen (Homo sapiens, UniProt P00747) data, read-out IC50.
Exam item: assign condition met to entries whose IC50 is below 20 µM and condition not met to entries at or above 20 µM. Note that a value of exactly 20 µM receives condition not met.

N=C(N)NCCCC(NC(=O)CN1CCN(S(=O)(=O)c2ccc3c(Cl)cccc3c2)CC1=O)C(=O)c1nccs1 (configuration not stated); condition met
CC[C@@H](C)[C@@H](N)C(=O)N[C@@H](Cc1ccccc1)C(=O)N[C@@H](CCCCN)C(N)=O; condition not met
CC[C@@H](C)[C@H](c1nc2ccc(C(=O)N[C@H](C#N)CCCCN)cc2n1C)N1C(=O)CN(c2ccc(Oc3ccccc3)cc2)C1=O; condition met

Problem: Would you kindly verify if IC50 of C=C(C)C[C@]1(N)C[C@H](OC)[C@@H]2[C@H](CC)CC(C(=O)NCc3ccc(C(=N)N)cc3)N2C1=O (some centres not stated) is strictly less than 20 µM?
Solution: condition not met

###

Literature roundup of Plasminogen (Homo sapiens, UniProt P00747) data, read-out pIC50.
Answer as the number alone; pIC50 is minus log10 of concentration in mol/L.

N=C(N)N1CCC(C[C@@H](NS(=O)(=O)Cc2cccc(C(=O)O)c2)C(=O)NCC(=O)N[C@H]2CCCN(C(=N)N)C2O)CC1 (some centres undefined); 6.64
N#C[C@H](CCCCN)NC(=O)c1ccc(OCc2ccncc2)c(NC(=O)Cc2ccc3ccccc3c2)c1; 3.66
CCCCCCN(CCCCCC)CCCCCN1C(=O)C(c2cccc(C(=N)N)c2)Oc2ccccc21 (centres undefined); 5.66
CC(C)(C)OC(=O)N[C@@H](C(=O)N1CCC[C@H]1C(=O)N[C@H](C=O)CCCN=C(N)N)c1ccsc1; 6.82

Problem: Request body: readout pIC50, system Plasminogen (Homo sapiens, UniProt P00747), query CN[C@H](Cc1ccccc1)C(=O)N1CCC[C@H]1C(=O)N[C@H](C=O)CCCN=C(N)N . Return the value.
Solution: 6.17

###

Literature roundup of Plasminogen (Homo sapiens, UniProt P00747) data, read-out IC50.
Kindly provide the numeric value in µM only, without the unit symbol.

Sample records with IC50:
CN(C)c1ccc(C(=O)O)c(Oc2nc(Oc3cccc(-c4cccc(CN)c4)c3)c(F)c(N3CCNCC3)c2F)c1; 4.4
N=C(N)c1ccc(CNC(=O)[C@@H]2CCN2C(=O)[C@H](NCC(=O)O)C2CCCCC2)cc1; 3.06
N=C(N)N1CCCC(NC(=O)[C@H]2CCCN2C(=O)C(CO)NC(=O)OCc2ccccc2)C1O (stereo not given in full); 0.125
CC(C)(C)c1ccc(O)c(C(=O)Nc2ccc(CN)cc2)c1.Cl; 21.3
CC(C)(C)OC(=O)N[C@@H](C(=O)N1CCC[C@H]1C(=O)NC(C=O)CCCN=C(N)N)c1ccc2ccccc2c1 (stereo not given in full); 0.055
CC[C@H](C)[C@H](NC(=O)C(O)Cc1ccc(O)cc1)C(=O)N1C2CC(OS(=O)(=O)O)CCC2C[C@H]1C(=O)NCCCCN=C(N)N (stereo not given in full); 10.7

Problem: Request body: readout IC50, system Plasminogen (Homo sapiens, UniProt P00747), query C=C(CO)c1ccc(-c2ccc(C(=O)NCC(C)C)cc2C(=O)O)c(C(=O)Nc2ccc(C(=N)N)cc2)c1 . Return the value.
Solution: 0.81

Problem: Request body: readout IC50, system Plasminogen (Homo sapiens, UniProt P00747), query Cn1c(CN2C(=O)CN(c3ccc(Oc4ccccc4)cc3)C2=O)nc2ccc(C(=O)N[C@H](C#N)CCCCN)cc21 . Return the value.
Solution: 25

Problem: Request body: readout IC50, system Plasminogen (Homo sapiens, UniProt P00747), query N=C(N)c1cccc(C2Oc3ccccc3N(CCCCCN3CCCCC3)C2=O)c1 (stereo not given) . Return the value.
Solution: 21

Problem: Request body: readout IC50, system Plasminogen (Homo sapiens, UniProt P00747), query CNc1c(F)c(Oc2cccc(-c3cccc(CN)c3)c2)nc(Oc2cc(N(C)C)ccc2C(=O)O)c1F . Return the value.
Solution: 3.6

Problem: Request body: readout IC50, system Plasminogen (Homo sapiens, UniProt P00747), query COc1ccc(C(=O)O)c(Oc2nc(Oc3cccc(-c4cccc(CN)c4)c3)c(F)cc2F)c1 . Return the value.
Solution: 9.4

Problem: Request body: readout IC50, system Plasminogen (Homo sapiens, UniProt P00747), query CC[C@@H]1CC(C(=O)NCc2ccc(C(=N)N)cc2)N2C(=O)[C@](N)(CC3=CCCCC3)C[C@H](OC)[C@H]12 (stereo not given in full) . Return the value.
Solution: 141

Problem: Request body: readout IC50, system Plasminogen (Homo sapiens, UniProt P00747), query C[C@@H](c1nc2ccc(C(=O)N[C@H](C#N)CCCCN)cc2n1C)N1C(=O)CN(c2ccc(Oc3ccncc3)cc2)C1=O . Return the value.
Solution: 19

Problem: Request body: readout IC50, system Plasminogen (Homo sapiens, UniProt P00747), query CC(=O)COc1ccc(N2CC(=O)N(Cc3cc4cnc(C(=O)N[C@H](C#N)CCCCN)nc4n3C)C2=O)cc1 . Return the value.
Solution: 250

Problem: Request body: readout IC50, system Plasminogen (Homo sapiens, UniProt P00747), query COc1ccc2c(O)c(C(=O)Nc3ccc(CN)cc3)ccc2c1 . Return the value.
Solution: 3.3

###

Literature roundup of Plasminogen (Homo sapiens, UniProt P00747) data, read-out IC50.
Kindly provide the numeric value in µM only, without the unit symbol.

Cn1c(CN2C(=O)CN(c3ccc(Oc4ccccc4)c(C(N)=O)c3)C2=O)cc2cnc(C(=O)N[C@H](C#N)CCCCN)nc21; 510
CC(C)c1cc(-c2ccc3c(c2)[C@H](N)CO3)cc([C@@H]2CNc3cccc(CC(=O)O)c3O2)c1; 0.69
CCOC(=O)C1(c2ccc3c(c2)nc(Cc2ccc(C(=N)N)cc2)c(=O)n3C)CC1; 69
CC(C)(C)[C@@H](Oc1nc(Oc2cccc(-c3cccc(CN)c3)c2)c(F)cc1F)C(=O)O; 5.45
N=C(N)N1CCCC(C[C@@H](NS(=O)(=O)Cc2ccccc2)C(=O)NCC(=O)N[C@H]2CCCN(C(=N)N)C2O)C1 (single isomer, unassigned); 0.919
CC(C)(C)OC(=O)NC(C(=O)N1CCC[C@H]1C(=O)NC(C=O)CCCNC(=N)N)c1ccc(Cl)c(Cl)c1 (stereo not given in full); 0.18

Problem: Request body: readout IC50, system Plasminogen (Homo sapiens, UniProt P00747), query Cn1c(CN2C(=O)CN(c3ccc(F)cc3)C2=O)cc2cnc(C(=O)N[C@H](C#N)CCCCN)nc21 . Return the value.
Solution: 43

Problem: Request body: readout IC50, system Plasminogen (Homo sapiens, UniProt P00747), query C=CCc1ccc(-c2ccc(C(=O)NCC(C)C)cc2C(=O)O)c(C(=O)Nc2ccc(C(=N)N)cc2)c1 . Return the value.
Solution: 2.47

Problem: Request body: readout IC50, system Plasminogen (Homo sapiens, UniProt P00747), query C[C@](NC(=O)C(F)(F)F)(C(=O)N1CC[C@H]1C(=O)N[C@H](C=O)CCCN=C(N)N)c1ccccc1 . Return the value.
Solution: 6.1

###

Literature roundup of Plasminogen (Homo sapiens) data, read-out pIC50.
pIC50: −log10 of the molar value.
Rule: True for pIC50 not less than 5, False for anything less.

CC(C)=CCc1ccc(-c2ccc(C(=O)NCC(C)C)cc2C(=O)O)c(C(=O)Nc2ccc(C(=N)N)cc2)c1; True
Cc1cc(C(=O)Nc2ccc(-c3ccccc3S(N)(=O)=O)cc2)n(-c2cc3ccccc3cc2Br)n1; False
O=C(Nc1ccc(Cl)cc1C(=O)Nc1ccc(Cl)cn1)c1ccc(CN2CCN=C2S)cc1; False
COC(=O)[C@@H](NC(=O)[C@@H](NC(=O)CC[C@H]1CCC[C@@H](NC(=O)[C@@H](NC(=O)[C@@H](NC(=O)OCc2ccccc2)C(=O)[C@@H](N)Cc2c[nH]c3ccccc23)C(=O)[C@@H](N)Cc2c[nH]c3ccccc23)C1=O)C(=O)[C@@H](N)Cc1c[nH]c2ccccc12)C(=O)[C@H](C)N; True
CC(C)CNC(=O)c1ccc(-c2ccc(-c3ccsc3CO)cc2C(=O)Nc2ccc(C(=N)N)cc2)c(C(=O)O)c1; True

Problem: Could you please find out whether N=C(N)N1CCC[C@H](NC(=O)C2CCN2C(=O)[C@@H](CO)NC(=O)OCc2ccccc2)C1O (some centres not stated) has pIC50 that meets 5 or exceeds it?
Solution: True

Problem: Could you please find out whether Cc1cc(C(=O)Nc2ccc(-c3ccccc3S(N)(=O)=O)cc2)n(-c2cc3ccccc3cc2C(N)=O)n1 has pIC50 that meets 5 or exceeds it?
Solution: False

Problem: Could you please find out whether O=C1N(Cc2ccccc2)C(=O)N1Cc1ccccc1 has pIC50 that meets 5 or exceeds it?
Solution: True

Problem: Could you please find out whether Cn1c(=O)c(Cc2ccc(C(=N)N)cc2)nc2cc(C3(C(=O)N4CCCC4C(=O)NCC(=O)O)CC3)ccc21 (configuration not stated) has pIC50 that meets 5 or exceeds it?
Solution: False

Problem: Could you please find out whether CC(O)[C@@H](NC(=O)OCc1ccccc1)C(=O)N[C@@H](C)C(=O)N[C@H]1CCCN(C(=N)N)C1O (some centres not stated) has pIC50 that meets 5 or exceeds it?
Solution: True

Problem: Could you please find out whether Cn1c(CN2C(=O)CN(c3ccc(Oc4ccccc4C(N)=O)cc3)C2=O)cc2cnc(C(=O)N[C@H](C#N)CCCCN)nc21 has pIC50 that meets 5 or exceeds it?
Solution: False

Problem: Could you please find out whether CCOC(=O)CN(C)Cc1ccc(C(=O)Nc2ccc(Cl)cc2C(=O)Nc2ccc(Cl)cn2)cc1 has pIC50 that meets 5 or exceeds it?
Solution: False

Problem: Could you please find out whether COC(=O)[C@@H](NC(=O)[C@@H](NC(=O)CC[C@H]1CCC[C@@H](NC(=O)[C@@H](NC(=O)[C@@H](NC(=O)OCc2ccccc2)C(=O)[C@@H](N)Cc2c[nH]c3ccccc23)C(=O)[C@@H](N)Cc2c[nH]c3ccccc23)C1=O)C(=O)[C@@H](N)Cc1c[nH]c2ccccc12)C(=O)[C@@H](N)CC(C)C has pIC50 that meets 5 or exceeds it?
Solution: True

Problem: Could you please find out whether CC(C)[C@H](c1nc2ccc(C(=O)N[C@H](C#N)CCCCN)cc2n1C)N1C(=O)CN(c2ccc(Oc3ccccc3)cc2)C1=O has pIC50 that meets 5 or exceeds it?
Solution: True

Problem: Could you please find out whether CNS(=O)(=O)Nc1c(CCc2ccccc2)ccn(CC(=O)N[C@H]2CCCN(C(=N)N)C2O)c1=O (some centres not stated) has pIC50 that meets 5 or exceeds it?
Solution: True

Problem: Could you please find out whether CN[C@@H](C(=O)N1CCC[C@H]1C(=O)N[C@H](C=O)CCCNC(=N)N)c1ccccc1 has pIC50 that meets 5 or exceeds it?
Solution: True

Problem: Could you please find out whether CC(C)c1ccc(C(=O)O)c(Oc2nc(Oc3cccc(-c4cccc(CN)c4)c3)c(F)cc2F)c1 has pIC50 that meets 5 or exceeds it?
Solution: True

Problem: Could you please find out whether CC(C)CNC(=O)c1ccc(-c2ccc(-c3cocc3CO)cc2C(=O)Nc2ccc(C(=N)N)cc2)c(C(=O)O)c1 has pIC50 that meets 5 or exceeds it?
Solution: True

Problem: Could you please find out whether CC(C)CNC(=O)c1ccc(-c2ccc(-c3cscc3CO)cc2C(=O)Nc2ccc(C(=N)N)cc2)c(C(=O)O)c1 has pIC50 that meets 5 or exceeds it?
Solution: True

Problem: Could you please find out whether Cn1c(CN2C(=O)CN(c3ccc(Oc4ccc5ncccc5c4)cc3)C2=O)cc2cnc(C(=O)N[C@H](C#N)CCCCN)nc21 has pIC50 that meets 5 or exceeds it?
Solution: False

Problem: Could you please find out whether Cn1c(CN2C(=O)CN(c3ccc(OCC(N)=O)cc3)C2=O)cc2cnc(C(=O)N[C@H](C#N)CCCCN)nc21 has pIC50 that meets 5 or exceeds it?
Solution: False

Problem: Could you please find out whether C=C(C)c1ccc(-c2ccc(C(=O)NCC(C)C)cc2C(=O)O)c(C(=O)Nc2ccc(C(=N)N)cc2)c1 has pIC50 that meets 5 or exceeds it?
Solution: True

Problem: Could you please find out whether NC(N)=NC(=O)c1nc(Cl)c(NCC(=O)OCc2ccccc2)nc1N has pIC50 that meets 5 or exceeds it?
Solution: False

Problem: Could you please find out whether CC(C)(C)OC(=O)NC(Cc1ccccc1)C(=O)N1CSCC1C(=O)N[C@H](C=O)CCCN=C(N)N (stereo in doubt) has pIC50 that meets 5 or exceeds it?
Solution: True
